- System: P388
- Assay procedure: Cytotoxicity against mouse P388 cells after 3 days by MTT assay
- Type: functional, cell-based
- Condition parameters: P388, 72 h
For each record, write down the corresponding IC50.
Unit µg/mL implied. Number only.

Qu. Supply recorded IC50 for COc1cc([C@@H]2c3cc4c(cc3[C@@H](O[C@@H]3O[C@@H]5CO[C@@H](C)O[C@H]5[C@H](O)[C@H]3O)[C@H]3COC(=O)[C@H]23)OCO4)cc(OC)c1O [ETOPOSIDE] here.
Ans. 0.12

Qu. Supply recorded IC50 for O=c1ccnc(SCC2CCCCC2)[nH]1 here.
Ans. 40.4

Qu. Supply recorded IC50 for O=c1ccnc(SC23CC4CC(CC(C4)C2)C3)[nH]1 here.
Ans. 36.9
